System: HEK293 cells
TEST_PROTOCOL: Cytotoxicity of the compounds in HEK293 cells
Assay type: cell-based, human
CONDITION_DESCRIPTION: read-out: CC50 nM HEK293; MTT, 72 h, 0.0019–2 µM

| MOLECULE | CC50 [nM] |
| --- | --- |
| CC(Cc1ccc(NC(=O)c2ccc(CNCCc3ccccc3)cc2)cc1)NCCc1cccc(Cl)c1.Cl (centres unmarked) | 1280 |
| CCOc1cc(CC)ccc1C1CCN(CCCCNC(=O)c2ccc(NC(=O)c3ccc(Cl)cc3)cc2)CC1.Cl | 16.6 |

* * *

As shown below, each of these compounds has a reported log10 of IC50 value.
Test system: P. falciparum 3D7
Format: cell-based, Plasmodium falciparum
CONDITION_DESCRIPTION: read-out: IC50 (nM) 3D7; Table 1; asynchronous culture, 72 h, 0.0019–2 µM; ± standard error of the mean
PARAMETER_MEASURED: log10 of IC50 (log10 of the value in nM)

| COMPOUND | SUBJECT_OF_TEST | log10 of IC50 |
| --- | --- | --- |
| COc1cc(C)nc2ccc(NC(=O)c3ccc(C(=O)Nc4ccc5nc(C)cc(OC)c5c4)cc3)cc12 | P. falciparum 3D7 | 1.99 |
| COc1ccc(C2CC(=O)C3=C(C2)NC(C)=C(C(=O)OC(C)C)C3c2cccc(O)c2)cc1OC (centres unmarked) | P. falciparum 3D7 | 1.90 |
| O=C1Nc2cccc3c2C1(CCCCN1CCC(c2cc4ccncc4[nH]2)CC1)CCC3 (centres unmarked) | P. falciparum 3D7 | 2.66 |
| O=C(/C=C/c1ccc(Cl)c(Cl)c1)Nc1cccc(CN2CCC(c3c[nH]c4ccc(O)cc34)CC2)c1 | P. falciparum 3D7 | 2.54 |
| COc1cc(NC(=O)N2CCOC(CCN3CCC4(CCc5ccccc54)CC3)(c3ccc(Cl)c(Cl)c3)C2)cc(OC)c1 (centres unmarked) | P. falciparum 3D7 | 2.65 |
| Cc1cc(NC(=O)NCCN2CCC(NC(=O)c3ccc(Cl)cc3)CC2)c2ccccc2n1 | P. falciparum 3D7 | 2.04 |
| Cc1ccc(NC(=O)Nc2ccc(Cl)c(C(F)(F)F)c2)cc1-c1ccc(C(=O)NCCN2CCOCC2)cc1 | P. falciparum 3D7 | 3.13 |
| O=C(/C=C/c1c(Cl)cccc1Cl)NC1CCC(CN2CCC(c3c[nH]c4ccccc34)CC2)CC1 (centres unmarked) | P. falciparum 3D7 | 2.44 |
| Cc1[nH]c2c(C)cccc2c1C1CCN(CCC2CCN(C(=O)/C=C/c3ccc(Cl)c(Cl)c3)CC2)CC1 | P. falciparum 3D7 | 1.96 |
| CCOc1ccc(C(=O)N2CCOC(CCN3CCC(c4ccccc4)CC3)(c3ccc(Cl)c(Cl)c3)C2)cc1 (centres unmarked) | P. falciparum 3D7 | 2.66 |
| COc1cc(NC(=O)N2CCOC(CCN3CCC4(CCc5ccccc54)CC3)(c3ccc(Cl)c(Cl)c3)C2)cc(OC)c1OC (centres unmarked) | P. falciparum 3D7 | 1.88 |
| COc1ccc(NC(=O)[C@H](CC(C)C)Nc2cc(C)nc(NCCc3ccccc3)n2)cc1 | P. falciparum 3D7 | 2.70 |
| O=C(/C=C/c1ccc(Cl)c(Cl)c1)N1CCC(CN2CCC(c3c[nH]c4cc(C(F)(F)F)ccc34)CC2)CC1 | P. falciparum 3D7 | 1.81 |
| O=C1CCCN1CCCNCc1ccc(-c2ccc(-c3nc4cc(C(F)(F)F)ccc4[nH]3)s2)cc1 | P. falciparum 3D7 | 2.41 |
| CC(Cc1ccc(NC(=O)c2ccc(CNCCc3ccccc3)cc2)cc1)NCCc1cccc(Cl)c1.Cl (centres unmarked) | P. falciparum 3D7 | 1.76 |
| CC[C@H](NC(=O)c1c(CC2CCN(CC(C)=O)CC2)c(-c2ccccc2)nc2ccccc12)c1ccccc1 | P. falciparum 3D7 | 2.33 |
| Clc1ccc2nccc(N3CCC(CN4CCC(c5c[nH]c6ccccc56)CC4)CC3)c2c1 | P. falciparum 3D7 | 1.86 |
| Cc1[nH]c2ccc(O)cc2c1C1CCN(CC2CCN(C(=O)/C=C/c3ccc(Cl)c(Cl)c3)CC2)CC1 | P. falciparum 3D7 | 2.00 |
| O=C(Nc1ccccc1)N(Cc1cccc(-c2cccc(CNCc3ccc4c(c3)OCO4)c2)c1)C1CCN(Cc2ccccc2)CC1 | P. falciparum 3D7 | 2.45 |
| COc1ccc2ncc(F)c([C@H](O)CN3CCC(NCc4ccc5c(c4)NC(=O)CO5)CC3)c2c1 | P. falciparum 3D7 | 2.53 |
| Fc1ccc2[nH]c(-c3cccc(-c4ccc(CN5CCN(c6ccncc6)CC5)cc4)c3)nc2c1 | P. falciparum 3D7 | 1.84 |
| CCOc1cc(CC)ccc1C1CCN(CCCCNC(=O)c2ccc(NC(=O)c3ccc(Cl)cc3)cc2)CC1.Cl | P. falciparum 3D7 | 1.91 |
| CS(=O)(=O)Nc1ccc2[nH]cc(C3CCN(CC4CCN(C(=O)/C=C/c5ccc(Cl)c(Cl)c5)CC4)CC3)c2c1 | P. falciparum 3D7 | 2.06 |
| O=c1c(NCCCN(Cc2ccc(F)cc2)c2ccccn2)c(NCc2ccncc2)c1=O | P. falciparum 3D7 | 2.00 |
| COc1ccc(CN2C(=S)N(Cc3ccccc3)C(=O)C2CC(=O)Nc2ccccc2)cc1OC (centres unmarked) | P. falciparum 3D7 | 2.88 |
| O=C(/C=C/c1ccc(Cl)c(Cl)c1)N1CCC(CN2CCC(c3c[nH]c4ccc(O)cc34)CC2)CC1 | P. falciparum 3D7 | 2.14 |
| Cn1nccc1C(=O)NCCNCc1ccc(-c2ccc(-c3nc4cc(C(F)(F)F)ccc4[nH]3)s2)cc1 | P. falciparum 3D7 | 2.45 |
| O=C(/C=C/c1ccc(Cl)c(Cl)c1)NC1CCC(CN2CCC(c3c[nH]c4ccc(O)cc34)CC2)CC1 (centres unmarked) | P. falciparum 3D7 | 2.09 |
| Cn1cnc(CCNC(=O)c2cccc(-c3cccc(-c4nc5cc(C(F)(F)F)ccc5[nH]4)c3)c2)c1 | P. falciparum 3D7 | 3.29 |
